# test target: Cytochrome P450 2C9 (Homo sapiens)
# procedure summary: Cytochrome panel assay with activity outcomes
# cond: recombinant CYP, pro-luciferin dealkylation, luminescence, p450-cyp2c9; series mostly up to 57.1 µM
In all, about 16,000 compounds went through this assay and about 4,000 (25%) were called active. About 26% were inconclusive and are not listed. The call rests on the fitted dose curve; in most records, active means well fitted curve in the direction sought with a large enough effect; inconclusive means small, poorly fitted or top-dose-only effect, or effect the other way; inactive means no such curve, though single readings can be large or run the other way. A selection follows.
Labels: 1 (active), 0 (inactive)

compound | category
COc1ccc(-n2c(=O)c(-c3ccccc3)nc3cnc(N4CCOCC4)nc32)cc1 | 0
O=S(=O)(N/N=C/c1ccc2c(c1)OCCO2)c1ccc(Cl)cc1 | 1
CN1CCN(c2ncc3nc(-c4cc(F)cc(F)c4)c(=O)n(C4CC4)c3n2)CC1 | 1
Cc1nc(SCC(=O)Nc2c(C)n(C)n(-c3ccccc3)c2=O)nc(C)c1C | 0
Cc1c(NC(=O)CSc2nnnn2C)c(=O)n(-c2ccccc2)n1C | 0
COc1cccc(NC(=O)COC(=O)c2nc3nccc(C)n3n2)c1 | 0
O=C(c1ccccc1)[C@@H]1O[C@H]1c1ccc(-c2ccccc2)cc1 | 1
CC1(C)CC(=O)C(C(C#Cc2ccccc2)C2=C(O)CC(C)(C)CC2=O)=C(O)C1 | 1
CC(C)(C)c1onc(OCP(=O)(O)O)c1C[C@@H](N)C(=O)O | 0
Cc1nn(S(=O)(=O)c2cccs2)c(C)c1Sc1ccc([N+](=O)[O-])cc1 | 1
OCCCCNCc1ccc(OCc2ccccc2Cl)cc1 | 0
COc1ccc(C(=O)Nc2ccc(C(=O)OCC(=O)c3ccccc3)cc2)cc1 | 0
COc1ccc(-c2nc3cnc(Oc4cccc(Cl)c4)nc3n(C[C@H]3CCCO3)c2=O)cc1 | 1
O=C(c1cccc(F)c1)N1CCC[C@@]2(CCN(c3ccccc3)C2)C1 | 0
COc1cc(-c2nnc(COC(=O)c3c4c(nc5ccccc35)CCCC4)o2)cc(OC)c1OC | 1
O=c1cnc2cnc(Nc3ccccc3)nc2n1C[C@H]1CCCO1 | 0
CCCc1ccc(Oc2cc(C)nc(N3CCOCC3)n2)cc1 | 1
COc1ccccc1-n1c(SCC(=O)Nc2ccccc2F)nc2[nH]ncc2c1=O | 1
COc1ccc(-n2c(=O)c(C)nc3cnc(N4CCOCC4)nc32)cc1 | 0
O=c1c(CCc2ccccc2)nc2cnc(Oc3cccc(Cl)c3)nc2n1C[C@H]1CCCO1 | 1
O=S(=O)(N/N=C\c1ccc2c(c1)OCO2)c1ccc(Cl)cc1 | 1
O=C(c1cccc(F)c1)N1CCC2(CCCN(c3cccc(-c4ccccc4)c3)C2)CC1 | 1
COc1ncc2nc(-c3cc(F)cc(F)c3)c(=O)n(C[C@H]3CCCO3)c2n1 | 0
Cc1ccc(Oc2ccccc2/C=C2\SC(=O)N(C)C2=O)cc1 | 1
O=C(c1cccc(F)c1)N1CCC2(CC1)CN(c1ccc(-c3ccccc3)cc1)C2 | 0
O=C(c1ccccc1)c1cc(F)c(N2CCOCC2)cc1Cl | 0
O=c1c(-c2cccs2)nc2cnc(Oc3cccc(Cl)c3)nc2n1C[C@H]1CCCO1 | 1
CCCCn1nnnc1SCC(=O)N1CCCC1 | 0
CN1CCN(c2ncc3nc(-c4ccc(Cl)cc4)c(=O)n(C4CC4)c3n2)CC1 | 0
CC1=NC(C)(C)Cc2ccccc21 | 0
O=C1N=C(N2CCC(Cc3ccccc3)CC2)S/C1=C/c1cn[nH]c1-c1ccccc1 | 1
COc1ccc(NC(=O)COC(=O)c2c3c(nc4ccccc24)CCCC3)cc1 | 1
c1ccc([C@@H]2CN3CCSC3=N2)cc1 | 0
COc1ccc(OC)c(NC(=O)c2c3c(nc4ccccc24)CCC3)c1 | 1
CCOC(=O)c1cnc2c(cnn2C)c1NCCCN(C)C | 0
CC1CCN(C(=O)Nc2ccc3nsnc3c2)CC1 | 1
N#CCCn1c(=O)c(-c2cc(F)cc(F)c2)nc2cnc(N3CCOCC3)nc21 | 0
NCCCCCCCCCCN | 0
O=[N+]([O-])c1cccc2c(Br)[nH]nc12 | 0
O=[N+]([O-])c1ccc(-c2cnc(SCc3ccccc3Cl)[nH]2)cc1 | 1
CN(C)c1ncc2nc(-c3cccs3)c(=O)n(C[C@H]3CCCO3)c2n1 | 0
Cc1c(NC(=O)CN2C(=O)C3C4C=CC(C4)C3C2=O)c(=O)n(-c2ccccc2)n1C (centres undefined) | 0
COc1cc2cc3c(N)c(C(=O)Nc4sc(C)c(C)c4C#N)sc3nc2cc1OC | 0
O=c1c2ccccc2nnn1CSc1ccc2c(c1)OCCO2 | 1

====

# test target: Cytochrome P450 2C9 (Homo sapiens) (UniProt P11712)
# Sequence (P11712 whole entry, looked up): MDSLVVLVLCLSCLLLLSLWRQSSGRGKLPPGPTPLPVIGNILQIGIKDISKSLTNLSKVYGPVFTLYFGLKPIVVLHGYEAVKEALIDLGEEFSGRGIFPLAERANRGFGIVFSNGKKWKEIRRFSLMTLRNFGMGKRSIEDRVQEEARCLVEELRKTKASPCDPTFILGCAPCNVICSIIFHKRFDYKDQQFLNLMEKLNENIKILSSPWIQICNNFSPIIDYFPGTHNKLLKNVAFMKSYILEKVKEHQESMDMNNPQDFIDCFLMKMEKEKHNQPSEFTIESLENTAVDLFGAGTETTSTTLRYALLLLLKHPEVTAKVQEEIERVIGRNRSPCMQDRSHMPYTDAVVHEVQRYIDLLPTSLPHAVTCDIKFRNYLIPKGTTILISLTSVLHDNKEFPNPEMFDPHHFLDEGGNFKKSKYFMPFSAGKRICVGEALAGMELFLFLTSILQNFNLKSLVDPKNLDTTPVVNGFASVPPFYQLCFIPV
# procedure summary: Cytochrome panel assay with activity outcomes
# cond: recombinant CYP, pro-luciferin dealkylation, luminescence, p450-cyp2c9; series mostly up to 57.1 µM
# Experimental: The P450 gene superfamily is involved in the metabolism and clearance of xenobiotics. This assay used various human CYP P450 isozymes to measure the dealkylation of various pro-luciferin substrates to luciferin. The luciferin is then measured by luminescence after the addition of a luciferase detection reagent. […] Inhibitors and some substrates limit the production of luciferin, and decrease measured luminescence. […] 8, Detection, 1 sec, ViewLux luminescent read […]
In all, about 16,000 compounds went through this assay and about 4,000 (25%) were called active. Not shown: some 26% with an inconclusive outcome. The list is a sample of the results.
experimental endpoint: AC50

compound | experimental endpoint | result
O=C(Nc1cccc(F)c1)/C(=C\c1ccco1)NC(=O)c1cccs1 | AC50 | 31.6 µM (active)
Cc1cccc(OC2(c3ccccc3)OC(=O)c3ccccc32)c1C (stereo unspecified) | AC50 | 3.16 µM (active)
Cc1cc(C)c(NC(=O)C2CCCN2C)c(C)c1 (stereo unspecified) | AC50 | inactive
O=C(Nc1cccc(F)c1)N1CCC2(CC1)CCN(C(=O)c1ccco1)CC2 | AC50 | inactive
CCCCNCCOCCSc1ccc(Cl)cc1 | AC50 | inactive
COc1cccc(-c2[nH]nc3c2C(c2ccsc2)C(C#N)=C(N)O3)c1 (stereo unspecified) | AC50 | 2.51 µM (active)

====

# test target: Cytochrome P450 2C9 (Homo sapiens) (UniProt P11712)
# procedure summary: Cytochrome panel assay with activity outcomes; on activity, negative = inhibition: on the % scale 0 is the no-effect control and ±100 the full control effect
# cond: recombinant CYP, pro-luciferin dealkylation, luminescence, p450-cyp2c9; series mostly up to 57.1 µM
# Experimental: The P450 gene superfamily is involved in the metabolism and clearance of xenobiotics. This assay used various human CYP P450 isozymes to measure the dealkylation of various pro-luciferin substrates to luciferin. The luciferin is then measured by luminescence after the addition of a luciferase detection reagent. […] Inhibitors and some substrates limit the production of luciferin, and decrease measured luminescence. […] 8, Detection, 1 sec, ViewLux luminescent read […]
Out of some 16,000 compounds screened, about 4,000 (25%) were called active. Another 26% or so got no clear call; they are omitted. These entries were drawn from the full list.
experimental endpoint: activity, negative = inhibition

molecule | result
CN(C)Cc1ccccc1-c1ccc2ncnc(N(C)Cc3ccco3)c2c1 | -5.32% [at 2.29 µM] (inactive)
CCc1c(O)c2c(c(O)c1C(C)=O)C(=O)c1c(cc(O)c(C(=O)O)c1C(=O)O)C2=O | -13.4% [at 11.4 µM] (inactive)
N#Cc1cccc(-c2cc(NCc3cccs3)ncn2)c1 | -9.65% [at 2.29 µM] (inactive)
Cn1c(=O)c2c(nc(C(=N)SCC(=O)O)n2C)n(C)c1=O | -13.3% [at 11.4 µM] (inactive)
Cc1cc2c(nc1C)CCCCN2C[C@H](C)O/N=C\[C@@H](C)[C@H](OCc1ccccc1)C(C)C | -8.65% [at 11.4 µM] (inactive)
CN1CCN(c2ncnc3ccc(-c4ccc5c(c4)OCO5)cc23)CC1 | 14.7% [at 2.29 µM] (inactive)
Cc1cccc(C)c1NC(=O)Nc1ccc(S(N)(=O)=O)cc1 | -4.33% [at 11.4 µM] (inactive)
C/C(=N\NC(N)=S)c1ccc[nH]1 | -7.98% [at 11.4 µM] (inactive)
O=C(O)/C(=C\c1ccc(O)cc1)c1cccc2ccccc12 | -3.39% [at 11.4 µM] (inactive)
CN1CCN(c2ncnc3ccc(-c4cccc(NS(C)(=O)=O)c4)cc23)CC1 | 22.3% [at 2.29 µM] (inactive)
O=C(O)[C@@H]1[C@@H]2C[C@@H]3[C@@H](OC(=O)[C@@H]31)[C@H]2Br | -8.47% [at 11.4 µM] (inactive)
Cc1noc(C)c1-c1ccc2ncnc(NCc3cccs3)c2c1 | -7.45% [at 2.29 µM] (inactive)
CC(C)c1ccccc1S(=O)c1ccccc1C(C)(C)O (stereo unspecified) | -18.2% [at 11.4 µM] (inactive)
Cc1cnc(CNc2ccnc(-c3ccc(N(C)C)cc3)n2)cn1 | 1.73% [at 2.29 µM] (inactive)
CC1CCN(CC(=O)N2c3ccccc3Sc3cc4ccccc4cc32)CC1 | -17.9% [at 11.4 µM] (inactive)
CC(C)(C)N1C(=O)[C@@H]2[C@H]3C(=CC[C@H]2C1=O)C(=O)[C@H]1O[C@H]1[C@H]3O | 4.81% [at 11.4 µM] (inactive)
CCc1cc2c(nc1CC)CCN(CC/C(C)=N/O[C@@H](C)c1cn([C@@H]3COC[C@@H]3O)nn1)C2 | 18.9% [at 11.4 µM] (inactive)
C/C(CCN1CCCCc2nc(C)c(C)cc21)=N\O[C@@H](C)CN1CCCc2nc(C)c(C)cc21 | -5.53% [at 11.4 µM] (inactive)
N#CC(C#N)=CNCCN1CCN(C=C(C#N)C#N)CC1 | 5.25% [at 11.4 µM] (inactive)
O=C(CSC1=NCCN1)Nc1ccccc1 | 2.48% [at 11.4 µM] (inactive)
COc1cccc(-c2ccc3ncnc(N4CCOCC4)c3c2)c1 | -6.77% [at 2.29 µM] (inactive)
COC(=O)C/C=C\[C@H](C)[C@H](CO)NS(=O)(=O)c1ccc(C)cc1 | 0.902% [at 11.4 µM] (inactive)
CC(C)=CCC/C(C)=C/CO/N=C1/C[C@@H](O)[C@@H](O)[C@@H]2[C@@H]3C(=O)N(C[C@@H]4CCCO4)C(=O)[C@H]3CC[C@@H]12 | 9.34% [at 11.4 µM] (inactive)
COc1ccccc1-c1cncnc1NCc1cnc(C)cn1 | 14.1% [at 2.29 µM] (inactive)
CC(C)(C)c1ccc(NS(=O)(=O)c2ccc(N)cc2)cc1 | -10.7% [at 11.4 µM] (inactive)
Nc1nc2c(C(=O)NCc3cccs3)nnn2c2cccc(Cl)c12 | 12.5% [at 11.4 µM] (inactive)
[O-][N+]1(CC[N+]2([O-])CCCCC2)CCCCC1 | -6.33% [at 11.4 µM] (inactive)
COCCNc1ncnc2ccc(-c3ccc(N(C)C)cc3)cc12 | -3.32% [at 2.29 µM] (inactive)
COc1ccccc1-c1nccc(NC2CCNCC2)n1 | 3.9% [at 2.29 µM] (inactive)
COCCNc1nc(-c2ccccc2OC)nc2ccccc12 | 5.14% [at 2.29 µM] (inactive)
NS(=O)(=O)c1nc(S(=O)(=O)O)c2[nH]cnc2n1 | -8.54% [at 11.4 µM] (inactive)
CN(C)Cc1ccc(C(C)(C)C)cc1-c1cc(C(C)(C)C)ccc1CN(C)C | 4.33% [at 11.4 µM] (inactive)
Cc1cnc(CNc2nc(-c3ccccc3Cl)nc3ccccc23)cn1 | 7.89% [at 2.29 µM] (inactive)
c1ccc(CSc2nnc3c4ccccc4c4ccccc4c3n2)cc1 | -1.66% [at 11.4 µM] (inactive)
CN(C)C[C@H]1CCC[C@@H](CN(C)C)C1=O | 1.9% [at 11.4 µM] (inactive)
CC(=O)NCCNc1cc(-c2ccccc2C(F)(F)F)ncn1 | -3.9% [at 2.29 µM] (inactive)
Cc1cnc(CNc2ncnc3ccc(-c4ccccc4C(F)(F)F)cc23)cn1 | -21.8% [at 2.29 µM] (inactive)
CN(Cc1ccco1)c1ccnc(-c2cccc(NS(C)(=O)=O)c2)n1 | -11.7% [at 2.29 µM] (inactive)
CO[C@@H]1/C=C\CC(=O)N[C@@H](C)C(=O)OC[C@@H](OC)[C@H](C)/C=C\CC(=O)OC[C@H]1C | 9.15% [at 11.4 µM] (inactive)
CC(=O)OC[C@@H]1O[C@@H](O/N=C2/C[C@@H](O)[C@@H](O)[C@@H]3[C@@H]4C(=O)N([C@@H](C)c5ccccc5)C(=O)[C@H]4CC[C@H]23)[C@H](OC(C)=O)[C@H](OC(C)=O)[C@@H]1OC(C)=O | 10.5% [at 11.4 µM] (inactive)
Cc1noc(C)c1-c1ccc2ncnc(NCc3cccnc3)c2c1 | -6.6% [at 2.29 µM] (inactive)

Sourced from PubChem BioAssay AID1851
